Task for the reader: assign each of the following molecules its reported IC50.
target system: Protein kinase C alpha type (Homo sapiens)
assay comment: Evaluated against recombinant human Protein kinase C alpha
Expressed in nM, but write only the number.

Give a short answer stating reported IC50 for `O=C(OCCCCc1ccc(O)cc1)c1cc(O)c(C(=O)c2c(O)cccc2C(=O)O)c(O)c1` .
3300

Give a short answer stating reported IC50 for `O=C(OCCCc1ccc(O)cc1)c1cc(O)c(C(=O)c2c(O)cccc2C(=O)O)c(O)c1` .
1900

Give a short answer stating reported IC50 for COC(=O)c1cccc(O)c1C(=O)c1c(O)cc(C(=O)OC2CNCC2Cc2ccc(O)cc2)cc1O (stereo not given) .
2200

Give a short answer stating reported IC50 for CC(CCc1ccc(O)cc1)OC(=O)c1cc(O)c(C(=O)c2c(O)cccc2C(=O)O)c(O)c1 (stereo not given) .
410

Give a short answer stating reported IC50 for CS(=O)(=O)NC(COC(=O)c1cc(O)c(C(=O)c2c(O)cccc2C(=O)O)c(O)c1)Cc1ccc(O)cc1 (stereo not given) .
23000
